Reported IC50 values follow for various compounds
System: 1A9-PTX10 cells
Experiment: SRB cytotoxicity assay, tubulin mutated paclitaxel-resistant 1A9-PTX10 cells
Type: cell-based, human
Conditions: 48 hours exposure, SRB; mean +/- SD, number of experiments in brackets
MEASURED_PARAMETER: IC50

- N.NC1CCCCC1.[Cl-].[Cl-].[Pt+2]: 1.5 µM
- N.N.[Cl][Pt][Cl] [Cisplatin, cisplatin]: 13.9 µM

* * *

System: CCRF/CEM cells
Test: Calcein AM viability assay (flow cytometry), parental CEM cells
Type: cell-based, human
Conditions: Homo sapiens, CCRF-CEM, 48 hours, read-out: IC50 CEM ("non-resistant")
MEASURED_PARAMETER: IC50 (nM)

* CC[C@@]1(O)C(=O)OCc2c1cc1n(c2=O)Cc2cc3ccccc3nc2-1 [Camptothecin, camptothecin] | 5

* * *

Tested on: NCI-Adr resistant subline
Assay: SRB cytotoxicity assay, P-glycoprotein expressing NCI-Adr resistant subline, with and without verapamil
Format: cell-based
Conditions: Homo sapiens, NCI/ADR-RES; no verapamil, 48 hours, SRB; read-out: IC50 NCI-Adr resistant −verapamil ("resistant")
pIC50: −log10 of the molar value.
pIC50: recorded values
MEASURED_PARAMETER: pIC50

* COc1cccc2c1C(=O)c1c(O)c3c(c(O)c1C2=O)C[C@@](O)(C(=O)CO)C[C@@H]3O[C@H]1C[C@H](N)[C@H](O)[C@H](C)O1 | 6.19
* CC(=O)O[C@H]1C(=O)[C@@]2(C)[C@H]([C@H](OC(=O)c3ccccc3)[C@]3(O)C[C@H](OC(=O)[C@H](O)[C@@H](NC(=O)c4ccccc4)c4ccccc4)C(C)=C1C3(C)C)[C@]1(OC(C)=O)CO[C@@H]1C[C@@H]2O | 5.85
* CC(=O)O[C@@]12CO[C@@H]1C[C@H](O)[C@@]1(C)C(=O)[C@H](O)C3=C(C)[C@@H](OC(=O)[C@H](O)[C@@H](NC(=O)OC(C)(C)C)c4ccccc4)C[C@@](O)([C@@H](OC(=O)c4ccccc4)[C@H]21)C3(C)C | 6.21

* * *

Test system: 1A9 cells
Assay: SRB cytotoxicity assay, parental paclitaxel-sensitive 1A9 cells
Assay type: cell-based, human
Conditions: 48 hours exposure, mean +/- SD, number of experiments in brackets, read-out: IC50 1A9 ("non-resistant")
MEASURED_PARAMETER: IC50

* N.NC1CCCCC1.[Cl-].[Cl-].[Pt+2] [JM118] | 0.5 µM
* N.N.[Cl][Pt][Cl] [Cisplatin, cisplatin] | 8.4 µM

* * *

Here the recorded IC50 is given for each entry.
Test system: NCI-Adr resistant subline
Test: SRB cytotoxicity assay, P-glycoprotein expressing NCI-Adr resistant subline, with and without verapamil
Assay type: cell-based
Conditions: Homo sapiens, NCI/ADR-RES; verapamil 12.5 μg/ml, 48 hours, SRB; read-out: IC50 NCI-Adr resistant +verapamil ("non-resistant")
MEASURED_PARAMETER: IC50 (nM)

• COc1cccc2c1C(=O)c1c(O)c3c(c(O)c1C2=O)C[C@@](O)(C(=O)CO)C[C@@H]3O[C@H]1C[C@H](N)[C@H](O)[C@H](C)O1 [Adriamycin, adriamycin] = 75000
• CC(=O)O[C@@]12CO[C@@H]1C[C@H](O)[C@@]1(C)C(=O)[C@H](O)C3=C(C)[C@@H](OC(=O)[C@H](O)[C@@H](NC(=O)OC(C)(C)C)c4ccccc4)C[C@@](O)([C@@H](OC(=O)c4ccccc4)[C@H]21)C3(C)C [Taxotere] = 19
• CC(=O)O[C@H]1C(=O)[C@@]2(C)[C@H]([C@H](OC(=O)c3ccccc3)[C@]3(O)C[C@H](OC(=O)[C@H](O)[C@@H](NC(=O)c4ccccc4)c4ccccc4)C(C)=C1C3(C)C)[C@]1(OC(C)=O)CO[C@@H]1C[C@@H]2O [Paclitaxel, paclitaxel] = 31

* * *

Test system: HT29 cells
Assay: SRB cytotoxicity assay, parental HT29 cells
Assay type: cell-based
Details: Homo sapiens, HT-29, 48 hours, read-out: IC50 HT-29 ("non-resistant")
pIC50: −log10 of the molar value.
MEASURED_PARAMETER: pIC50

• O=C1c2c(O)ccc(O)c2C(=O)c2c(NCCNCCO)ccc(NCCNCCO)c21 [Mitoxantrone, mitoxantrone] = 5.89

* * *

Test system: MCF-7/VP cells
Assay: SRB cytotoxicity assay, etoposide-resistant MCF-7/VP cells (MRP1 up-regulated)
Format: cell-based
Details: Homo sapiens, MCF7-VP; 48 hours, SRB
pIC50: −log10 of the molar value.
MEASURED_PARAMETER: pIC50

• COc1cc([C@@H]2c3cc4c(cc3[C@@H](O[C@@H]3O[C@@H]5CO[C@@H](C)O[C@H]5[C@H](O)[C@H]3O)[C@H]3COC(=O)[C@H]23)OCO4)cc(OC)c1O [Etoposide, etoposide] = < 4.00
